Target: dsDNA
Assay protocol: Binding affinity to biotin-labeled ds26 DNA (unknown origin) immobilized on SA biosensor assessed as dissociation constant by BLI assay
Format: nucleic-acid assay
pKd: −log10 of the molar value.
Readout label: pKd

- Brc1c2ccccc2c(C[P+](c2ccccc2)(c2ccccc2)c2ccccc2)c2ccccc12.[Br-]: 4.63

----------
Target: Quadruplex DNA
Assay protocol: Binding affinity to biotin-labeled c-myc DNA G-quadruplex (unknown origin) immobilized on SA biosensor assessed as dissociation constant by BLI assay
pKd: −log10 of the molar value.
Readout label: pKd

- Cc1c2ccccc2c(C[P+](c2ccccc2)(c2ccccc2)c2ccccc2)c2ccccc12: < 4.60
- Brc1c2ccccc2c(C[P+](c2ccccc2)(c2ccccc2)c2ccccc2)c2ccccc12.[Br-]: 4.81
- c1ccc([P+](Cc2c3ccccc3cc3ccccc23)(c2ccccc2)c2ccccc2)cc1: < 4.60

----------
The reader will find reported pIC50 values listed item by item below.
Assay protocol: Inhibition of cell proliferation in human HL7702 cells by MTT assay
Assay type: toxicity, cell-based
Test parameters: HL7702 (L02) cells
pIC50: −log10 of the molar value.
Readout label: pIC50

• N=C(N)SCC1c2ccccc2CCc2ccccc21 = < 4.30
• Cc1c2ccccc2c(CSC(=N)N)c2ccccc12 = 5.30
• N=C(N)SCc1ccc([N+](=O)[O-])cc1 = < 4.30
• N=C(N)SCc1c2ccccc2c(Br)c2ccccc12 = 4.61
• N=C(N)SCc1cccc2ccccc12 = < 4.30
• N=C(N)SCc1ccc2ccccc2c1 = < 4.30
• N=C(N)SCc1c2ccccc2cc2ccccc12 = 4.68
• Cc1ccc(CSC(=N)N)cc1 = < 4.30
• N=C(N)SCc1c2ccccc2nc2ccccc12 = < 4.30

----------
Target: Quadruplex RNA
Assay protocol: Binding affinity to biotin-labeled NRAS RNA G-quadruplex (unknown origin) immobilized on SA biosensor assessed as dissociation constant by BLI assay
pKd: −log10 of the molar value.
Readout label: pKd

• Brc1c2ccccc2c(C[P+](c2ccccc2)(c2ccccc2)c2ccccc2)c2ccccc12.[Br-] = 4.62

----------
Assay protocol: Inhibition of cell proliferation in HUVEC cells by MTT assay
Format: toxicity, cell-based
Test parameters: human
pIC50: −log10 of the molar value.
The entries below come with measured pIC50 values attached.
Readout label: pIC50

- N=C(N)SCc1c2ccccc2cc2ccccc12: 5.02
- N=C(N)SCC1c2ccccc2CCc2ccccc21: < 4.30
- N=C(N)SCc1ccc([N+](=O)[O-])cc1: < 4.30
- Cc1ccc(CSC(=N)N)cc1: < 4.30
- Cc1c2ccccc2c(CSC(=N)N)c2ccccc12: 5.46
- N=C(N)SCc1c2ccccc2c(Br)c2ccccc12: 4.69
- N=C(N)SCc1cccc2ccccc12: < 4.30
- N=C(N)SCc1ccc2ccccc2c1: < 4.30
- N=C(N)SCc1c2ccccc2nc2ccccc12: < 4.30

----------
Tested on: Quadruplex RNA
Assay protocol: Binding affinity to NRAS RNA G-quadruplex (unknown origin) assessed as thermal stability by measuring increase in melting temperature by FRET assay
Format: nucleic-acid assay
Readout label: ΔTm (°C)

- Cc1c2ccccc2c(C[P+](c2ccccc2)(c2ccccc2)c2ccccc2)c2ccccc12: -0.4
- Brc1c2ccccc2c(C[P+](c2ccccc2)(c2ccccc2)c2ccccc2)c2ccccc12.[Br-]: 0.1
- Cc1c2ccccc2c(CSC(=N)N)c2ccccc12: -0.2
- c1ccc([P+](Cc2c3ccccc3cc3ccccc23)(c2ccccc2)c2ccccc2)cc1: 0.2

----------
Target: DNA
Assay protocol: Binding affinity to biotin-labeled ss26 DNA (unknown origin) immobilized on SA biosensor assessed as dissociation constant by BLI assay
pKd: −log10 of the molar value.
Readout label: pKd

• Brc1c2ccccc2c(C[P+](c2ccccc2)(c2ccccc2)c2ccccc2)c2ccccc12.[Br-] = 4.97

Reference source for all entries: ChEMBL document CHEMBL5543088
